measurement conditions: 293.2 K; 101.33 kPa; Liquid; Vibrating tube method
value kind: mass density (kg/m3)

>  <item smiles>
CCCCCCCO

>  <reported result>
821.63

$$$$
>  <item smiles>
CCCCCCO

>  <reported result>
818.21

$$$$
>  <item smiles>
CCCCCO

>  <reported result>
813.98

$$$$

P = O=CO
Q = CCCCO
Req: Endpoint returns whichever of P and Q has the numerically higher mass density. Indicate which entry you chose by stating its label.
Resp: P

* * *

assay info: refractive index (Na D-line) (dimensionless)
measurement conditions: 293.2 K; 101.33 kPa; Liquid; Standard Abbe refractometry
value kind: refractive index

>  <item smiles>
CCCCCCO

>  <refractive index>
1.4181

$$$$
>  <item smiles>
CCCCCCCO

>  <refractive index>
1.4244

$$$$
>  <item smiles>
CCCCCO

>  <refractive index>
1.41

$$$$
>  <item smiles>
O=CO

>  <refractive index>
1.3711

$$$$
>  <item smiles>
CCCCO

>  <refractive index>
1.3983

$$$$
>  <item smiles>
O

>  <refractive index>
1.3328

$$$$
